Consider the following compounds and their measured melting point readings.

Study these solved cases before continuing.
chemicalStructure	metric	val
NC(=O)C1=C(C(=O)Nc2ccc(Cl)cc2F)CCCC1	melting point	150 to 151 °C
CN(Cc1ccco1)c1nccc(Oc2ccc(NC(=O)c3cc(F)cc(N4CCCCC4)c3)c3ccccc23)n1	melting point	155 to 156 °C
COC(=O)Cn1c(C(=O)NC(N)=S)c(C)c2cc(C)ccc21	melting point	210 to 212 °C
C=CCONC(=O)n1nc(Oc2c(Cl)cc(C(F)(F)F)cc2Cl)cc1C	melting point	68 to 70 °C

Next item in the queue.
Task: Identify measured melting point associated with O=[N+]([O-])c1cccc(Br)c1CBr
Result: 61.5 to 63 °C
